So I've got a bunch of sequences here, and I need their apparent KD of MS2 coat protein values.
test system: MS2 coat protein; test: apparent KD of MS2 coat protein; designed switch direction (-1 OFF switch, 1 ON switch): 1; higher = weaker reporter binding; details: input ligand: FMN 200 uM
Numbers only, in nM.

INSERT INTO assay_data (sequence_input, reported) VALUES
  ('AGCUAGUACCGAGGAUAUACAUACAUGAGGAUCACCCAUGUAUACAUGAAAUAAUGAGACUACAUGUAGAAGGCGGUACUAGCA [Mat - Same State NG 2 - JL mod - D45] (Eterna round: R96, puzzle: Same State NG 2)', 16.9),
  ('UUUAAACAUGAGGAUCACCCAUGUUUUUUUAUGGGAGGAUAUCUAAGUUAAUUAUAUUAAGGAGAAGGCCUAUUUU (Eterna round: R96, puzzle: Same State 1)', 28.1),
  ('UUAACAUGAGGAUCACCCAUGUAUAGGGAGUUUGCAAUUUGACAGGAUAUUGAAGAUUUAUAUAGCAAGAAGGGUCGUUAGUCU [JR_SSNG3_Sub005] (Eterna round: R96, puzzle: Same State NG 3)', 38);

Hey, can you go through the list below and give me apparent KD of MS2 coat protein for every item?
1. CGCCAGAGAGCAGGAUAUGGGCCACGGCCUAAGGGCUGUGGACUCACAUGAGGAUCACCCAUGUCCCAGAAGGGCUCCUGGCUA [Usarbebi] (Eterna round: R96, puzzle: Same State NG 2)
2. GGUCUAGUUACAGGAUAUGCAUUGCUUUGCGAUGCAGAAGGGUGGUAACAUGAGGAUCACCCAUGUGGGCCAGCGCAAAAGCGC [JL SSNG1 cdp] (Eterna round: R96, puzzle: Same State NG 1)
3. UUUCUCAUGUAAGGAUAUGCAGCCGUUUCGGCUGCAGAAGGUACUAUAAUACAUGAGGAUCACCCAUGUCUCUCGCAUUGCGAG [JL SSNG1 1.48] (Eterna round: R96, puzzle: Same State NG 1)

[18.1, 981, 263]

----------
tested on: MS2 coat protein; assay: apparent KD of MS2 coat protein; higher = weaker reporter binding; conditions: Eterna round: R107; input ligand: none
Use yes (1) when the recorded apparent KD of MS2 coat protein is no lower than 50 nM; use no (0) when it is lower.

Reported apparent KD of MS2 coat protein reaches at least 50 nM for AAUAUCAUGAGGAUCACCCAUGAAGAAGAUACCAGAGUGAUGAUCCUCCCUUGGCAGCUUAACGCUGAUUGAUUACAAUCAGCGA ? yes (1)

Reported apparent KD of MS2 coat protein reaches at least 50 nM for UGCACUCAUGCGGCCGCCACUGUCGGCCGCCACUAAACAUGAGGAUCACCCAUGUAGGACCGGGACAGGACCGGGCAUGGGUGCU [TryBS - #DoubleAptamer 2] ? no (0)

Reported apparent KD of MS2 coat protein reaches at least 50 nM for CGUAUGUAGACGGCCGCCACUGGAACCUGAGGAUCACCCAGGUACAGGGUGGGUAACUCGAGAGUCAGGACCGGGUCUACAUACA [Tryp B Ex t3] ? no (0)

Reported apparent KD of MS2 coat protein reaches at least 50 nM for GGACAUGCAGGAAGGAGCGACACAGCAGAAACUGCAAAUCCUCCACACGAGGAUCACCCGUGUCAGGUAGGUCGCCUGCAUGUCG [ArgXB 14 #Zipper #MS2Left #StaticStem #Blueprint] ? yes (1)

Reported apparent KD of MS2 coat protein reaches at least 50 nM for UGGCAAGAGGGAAGGAGCGUCAGCAGAGUAACAUGAGGAUCACCCAUGUAGCACGUGGUGUGACAGGUAGGUCGCCCUCUGCCGU [SS-ArgB13] ? no (0)

Reported apparent KD of MS2 coat protein reaches at least 50 nM for AAGAUACUCUGAAGGAGCGGCAUAAAACAUGAGGAUCACCCAUGUGCGCGGGUGUAAUUAUGCCAGGUAGGUCGCAGAGUAUUUA [#03 Same State - Arginine B] ? yes (1)
